Below, each entry is listed with its recorded Lung weight index.
Test system: mice with bleomycin-induced pulmonary fibrosis
Test: Lung weight index in mice with pulmonary fibrosis
Assay type: in vivo, C57BL/6 mice
Conditions: Table 3 groups, 2 mg/kg i.p.; after 28 days; lung weight (mg) divided by body weight (g)
Bridge positions count the residues as written; N and C are the ends. Square brackets hold non-standard residues; d marks the D form. Peptide text beside a SMILES is read from it. S5 = C=CCCC[C@](C)(N)C(=O)O

Below, each entry is followed by its recorded Lung weight index result.
COMPOUND	Lung weight index
CSCC[C@H](NC(=O)[C@H](CC(C)C)NC(=O)[C@@H](N)Cc1c[nH]cn1)C(=O)N[C@@]1(C)CCCC=CCCC[C@@](C)(C(=O)N[C@@H](C)C(=O)N[C@@H](CCCCN)C(=O)N[C@@H](CCCCN)C(=O)N[C@@H](CC(C)C)C(=O)N[C@@H](CCCCN)C(=O)N[C@@H](CCCCN)C(=O)N[C@@H](CCCNC(=N)N)C(=O)O)NC(=O)[C@H]([C@@H](C)O)NC(=O)[C@H](Cc2ccccc2)NC(=O)[C@H](CS)NC1=O [S4] (H-HLM[S5]CFT[S5]AKKLKKR-OH; staple 4-8; N-terminus and C-terminus assumed)	8.925
CC(C)C[C@H](NC(=O)[C@H](CCCCN)NC(=O)[C@H](CCCCN)NC(=O)[C@H](C)NC(=O)[C@H](CS)NC(=O)[C@]1(C)CCCC=CCCC[C@](C)(NC(=O)[C@H](CC(C)C)NC(=O)[C@@H](N)Cc2c[nH]cn2)C(=O)N[C@@H](C)C(=O)N[C@@H](CS)C(=O)N[C@@H](Cc2ccccc2)C(=O)N1)C(=O)N[C@@H](CCCCN)C(=O)N[C@@H](CCCCN)C(=O)N[C@@H](CCCNC(=N)N)C(=O)O [S3] (H-HL[S5]ACF[S5]CAKKLKKR-OH; staple 3-7; N-terminus and C-terminus assumed)	8.8

Next up:
Reported Lung weight index of CSCC[C@H](NC(=O)[C@H](CC(C)C)NC(=O)[C@@H](N)Cc1c[nH]cn1)C(=O)N[C@@H](C)C(=O)N[C@@H](CS)C(=O)N[C@@H](Cc1ccccc1)C(=O)N[C@H](C(=O)N[C@@H](CS)C(=O)N[C@@H](C)C(=O)N[C@@]1(C)CCCC=CCCC[C@@](C)(C(=O)N[C@@H](CCCNC(=N)N)C(=O)O)NC(=O)[C@H](CCCCN)NC(=O)[C@H](CC(C)C)NC(=O)[C@H](CCCCN)NC1=O)[C@@H](C)O [S10] (H-HLMACFTCA[S5]KLK[S5]R-OH; staple 10-14; N-terminus and C-terminus assumed) : 8.8875

Just for reference, patent US20210179680A1 is where these values come from.
